Measurement record for UniProtKB O42275; quantity recorded: IC50.
Sequence (O42275 24-633): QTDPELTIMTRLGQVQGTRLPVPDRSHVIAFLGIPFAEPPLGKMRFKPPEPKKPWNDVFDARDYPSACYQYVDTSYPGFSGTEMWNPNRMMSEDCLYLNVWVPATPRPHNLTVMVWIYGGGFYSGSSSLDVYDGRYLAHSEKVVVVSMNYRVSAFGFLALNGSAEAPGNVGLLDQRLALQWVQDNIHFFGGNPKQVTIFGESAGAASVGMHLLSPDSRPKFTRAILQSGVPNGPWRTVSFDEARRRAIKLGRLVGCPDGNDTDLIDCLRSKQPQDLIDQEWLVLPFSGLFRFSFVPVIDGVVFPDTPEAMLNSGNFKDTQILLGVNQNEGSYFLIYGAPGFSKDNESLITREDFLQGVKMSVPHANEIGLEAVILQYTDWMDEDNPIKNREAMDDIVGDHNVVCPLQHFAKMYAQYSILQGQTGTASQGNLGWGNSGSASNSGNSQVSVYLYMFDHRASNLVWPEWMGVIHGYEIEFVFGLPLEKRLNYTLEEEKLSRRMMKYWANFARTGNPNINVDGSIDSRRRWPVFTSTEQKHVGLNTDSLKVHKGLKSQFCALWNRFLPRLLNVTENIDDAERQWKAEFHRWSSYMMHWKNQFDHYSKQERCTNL
// unit must come after the numeric part

# value lookup — system UniProtKB O42275, readout IC50, item O=C1Oc2cc(O)c3c(c2[C@]12c1c(O)cc(O)cc1O[C@H]2c1ccc(O)cc1)O[C@H](c1ccc(O)cc1)[C@@H](O)C3
655 µM

# value lookup — system UniProtKB O42275, readout IC50, item O=C1Oc2cc(O)c3c(c2C12c1c(O)cc(O)cc1OC2c1ccc(O)cc1)OC(c1ccc(O)cc1)C(O)C3 (centres unmarked)
294 µM
